Tested on: KM12
TEST DESCRIPTION: NCI tumour cell line growth inhibition, 48 h
Calls of active or inactive are those of the source. Rule as the data show it: active = GI50 up to about 1.1 µM and inactive = higher.
Below, each entry is listed with its recorded GI50.

Answered cases to consult:
COMPOUND	TARGET OF ASSAY	EXPERIMENTAL RESULT
O=C1Nc2ccc(Br)cc2/C1=C/C(=O)c1ccccc1	KM12	7.83 µM (inactive)
OCCSCC(O)Cn1cnc2c(O)nc(Nc3ccccc3)nc21 (stereo unspecified)	KM12	> 100 µM (inactive)
C#CC(C)(C)Oc1cc(OC)c2c(=O)c3ccccc3n(C)c2c1	KM12	10.9 µM (inactive)
O=C1NCC(CSc2nc3cc(C4CCCc5c4[nH]c4ccccc54)ccc3o2)N1 (stereo unspecified)	KM12	56.4 µM (inactive)
CCn1c2ccccc2c2cc(NC(=O)c3c(C)[nH]c(=O)[nH]c3=S)ccc21	KM12	18.5 µM (inactive)

Continue with the compound presented below.
Sample COc1ccc(C2SCC(=O)N2c2ccc(-c3ccc(-n4c(-c5ccccc5)nc5ccccc5c4=O)cc3)cc2)cc1OC (stereo unspecified) ; GI50 observed: 7.85 µM (inactive)

---

System: U-251
TEST DESCRIPTION: NCI tumour cell line growth inhibition, 48 h
Activity calls are given as the source filed them. Rule as the data show it: active = GI50 up to about 1.1 µM and inactive = higher.
Below, each entry is listed with its recorded GI50.

Answered cases to consult:
COMPOUND	TARGET OF ASSAY	EXPERIMENTAL RESULT
CCOC(=O)c1cc2c3c(c(O)c(OC)c2s1)N(C(=O)c1cc2c4c(c(O)c(OC)c2s1)N(C(C)=O)CC4)CC3	U-251	63.8 µM (inactive)
NC(=O)C(C(N)=O)=C(O)/C(O)=C/C(=O)c1ccccc1	U-251	> 100 µM (inactive)
CC(C)(C)OC(=O)NC(Cc1ccc(OCc2ccccc2)cn1)C(=O)N1CCSCC1 (centres undefined)	U-251	74.3 µM (inactive)

Sample CCOC(=O)NC(=O)c1cn(CCOC(=O)NCCCCCCNC(=O)OCCn2cc(C(=O)NC(=O)OCC)c(=O)[nH]c2=O)c(=O)[nH]c1=O ; GI50 observed: > 100 µM (inactive)

Sample CN(C)C(=S)C(Cl)(c1ccccc1)c1ccccc1 ; GI50 observed: 36.1 µM (inactive)

Sample Cc1cccc(C(C)(C)C)c1NC(=O)CC1C(=O)Nc2ccccc2[S+]1[O-] (centres undefined) ; GI50 observed: 58.9 µM (inactive)

Sample CCN(CC)C(=O)Cn1c(-c2ccccc2)cc2ccccc21 ; GI50 observed: 40.1 µM (inactive)

Sample COc1ccc(/C=C2\NC(=S)N(CN3CCCCC3)C2=O)cc1 ; GI50 observed: 61.7 µM (inactive)

Sample C=CCN1CN(C2CCCCC2)CSC1=S ; GI50 observed: 3.59 µM (inactive)

---

Test system: SF-268
TEST DESCRIPTION: NCI tumour cell line growth inhibition, 48 h
Calls of active or inactive are those of the source. Rule as the data show it: active = GI50 up to about 1.1 µM and inactive = higher.
# valid calls are active, inactive; nothing else

These solved cases illustrate the format of a correct answer.
MOLECULE	TARGET OF ASSAY	ASSIGNED LABEL
NC(=O)C(C(N)=O)=C(O)/C(O)=C/C(=O)c1ccccc1	SF-268	inactive
CN1C(=O)C2C=CC1C1CCC2N(C)C1=O (configuration not stated)	SF-268	inactive
O=C(O)C1CCCN1Cc1ccc2c(c1)OCO2 (configuration not stated)	SF-268	inactive

IN: Answer briefly: the call reported for CCCCC1(NN=C2CCCCC2)C(=O)N(c2ccccc2)N(c2ccccc2)C1=O in this assay.
OUT: inactive

IN: Answer briefly: the call reported for Cc1ccc(C(=O)Nc2ccc(CP(=O)(O)O)cc2)cc1NC(=O)c1cccc(N)c1 in this assay.
OUT: inactive

IN: Answer briefly: the call reported for O=c1c2ccccc2[se]n1-c1cccnc1 in this assay.
OUT: inactive

IN: Answer briefly: the call reported for CCN(CC)c1ccc(Cl)c2c1C(O)(C(C)C)C2(C)C (configuration not stated) in this assay.
OUT: inactive

IN: Answer briefly: the call reported for OCCSCC(O)Cn1cnc2c(O)nc(Nc3ccccc3)nc21 (configuration not stated) in this assay.
OUT: inactive

Cited source for all entries: ChEMBL document CHEMBL1201862
